Please provide measured melting point for the entries that follow.

Some entries whose results are on file:
>>> df
                           structure_string        reading
0  COc1ccc(/C=C/C(=O)CC(=O)/C=C/c2ccc(O)c(Cl)c2)cc1O  195 to 197 °C
1  COc1ccc(O)c(/C=C/C(=O)CC(=O)/C=C/c2ccc(O)c(OC)c2)c1    78 to 80 °C

Could you report melting point for every entry in the following list?
1. COc1cc(/C=C/C(=O)CC(=O)/C=C/c2ccc(N(C)C)cc2[N+](=O)[O-])ccc1O
2. O=C(/C=C/c1cccnc1N1CCN(Cc2ccccc2)CC1)CC(=O)/C=C/c1cccnc1N1CCN(Cc2ccccc2)CC1

### Response
1. 203 to 210 °C
2. 150 to 155 °C
